Tested on: A498
Assay: NCI tumour cell line growth inhibition, 48 h
Activity calls are given as the source filed them. No stated cut-off is given here; in the data, active = GI50 up to about 1.1 µM and inactive = higher.
Pick one and only one: active, inactive

Example entries begin here.
[
  {
    "COMPOUND": "CCOC(=O)Nc1ccc(C)c(NC(=O)OCC)c1",
    "CLASS_NAME": "inactive"
  },
  {
    "COMPOUND": "Cc1cc(-c2c(F)cc3c4nn([C@H]5CC[C@@H](N(C)C)CC5)c(=O)c-4cn(C4CC4)c3c2F)cc(C)n1",
    "CLASS_NAME": "active"
  },
  {
    "COMPOUND": "O=C(O)/C=C\\C(=O)Nn1c(Cc2ccc(Cl)cc2)n[nH]c1=O",
    "CLASS_NAME": "inactive"
  },
  {
    "COMPOUND": "CNc1ccc(Cl)cc1S(=O)(=O)c1ccccc1[N+](=O)[O-]",
    "CLASS_NAME": "inactive"
  },
  {
    "COMPOUND": "C=C1C(=O)O[C@@H]2C[C@@H](C)[C@@H]3C=CC(=O)[C@@]3(C)[C@@H](O)[C@H]12",
    "CLASS_NAME": "inactive"
  },
  {
    "COMPOUND": "CC1(C)CC(=O)c2c(oc3cc(O)c(O)cc23)C1",
    "CLASS_NAME": "inactive"
  }
]

# ---- query compound ----
Record lookup: outcome of this test for CCOC(=O)CSc1nc2ccccc2c(=O)n1N ? inactive

###

System: SN12C
Experiment: NCI tumour cell line growth inhibition, 48 h
The source made the active and inactive calls. Rule as the data show it: active = GI50 up to about 1.1 µM and inactive = higher.
ASSAY_ENDPOINT: GI50

[
  {
    "MOLECULE": "O=C(CCC(=O)c1ccsc1)c1ccsc1",
    "RECORDED_VALUE": "> 100 µM (inactive)"
  },
  {
    "MOLECULE": "CC(=O)c1sc2c(c1O)c(=O)n(-c1ccccc1)c(=S)n2-c1ccccc1",
    "RECORDED_VALUE": "> 100 µM (inactive)"
  },
  {
    "MOLECULE": "O=C(O)[C@@H]1C2CC([C@@H]1C(=O)O)[C@H](N1C(=O)CCC1=O)[C@@H]2Br (stereo not given in full)",
    "RECORDED_VALUE": "> 100 µM (inactive)"
  },
  {
    "MOLECULE": "CN1C(=O)C(CCO)(C(C)(C)C)c2ccccc21 (stereo not given)",
    "RECORDED_VALUE": "> 100 µM (inactive)"
  },
  {
    "MOLECULE": "Cc1cc(Cl)ccc1NC1=NC(=O)C(CC(=O)Nc2cccc(Cl)c2)S1 (stereo not given)",
    "RECORDED_VALUE": "53.5 µM (inactive)"
  },
  {
    "MOLECULE": "N#CCCN(CCC#N)c1ccc(/C=C2\\N=C(c3ccccc3)N(c3ccc(Cl)cc3)C2=O)cc1",
    "RECORDED_VALUE": "> 100 µM (inactive)"
  },
  {
    "MOLECULE": "COC1=CC(=Nc2c(Cl)cc(Cl)cc2OC(=O)c2ccc([N+](=O)[O-])cc2)C=C(OC)C1=O",
    "RECORDED_VALUE": "11.8 µM (inactive)"
  },
  {
    "MOLECULE": "COC(=O)CNC(=O)CCC(C)[C@H]1CCC2C3C(C[C@H](OC(C)=O)[C@@]21C)[C@@]1(C)CCC2(C[C@H]1C[C@H]3OC(C)=O)OOC1(CCCCC1)OO2 (stereo not given in full)",
    "RECORDED_VALUE": "1.59 µM (inactive)"
  }
]

Item: C=CCOC(=O)C1CCC(=O)N1C(=O)C(Cl)Cl (stereo not given) | GI50: > 100 µM (inactive)

GET /value?item= O=C1OC(O)C(Oc2c(Cl)cccc2Cl)=C1Cl (stereo not given) &field=GI50 returns 17 µM (inactive)

###

Tested on: NCI-H522
Experiment: NCI tumour cell line growth inhibition, 48 h
The source made the active and inactive calls. Cut-off read from the data, not from the text of the source: active = GI50 up to about 1.1 µM and inactive = higher.
Outcome (select one): active, inactive

[
  {
    "MOLECULE": "O=C(N/N=C/c1ccc2c(c1)CCC2)c1ccccc1O",
    "TESTED_TARGET": "NCI-H522",
    "CLASS_NAME": "inactive"
  },
  {
    "MOLECULE": "Cc1c2cc[n+](C)c(C)c2cc2c1[nH]c1ccccc12",
    "TESTED_TARGET": "NCI-H522",
    "CLASS_NAME": "inactive"
  },
  {
    "MOLECULE": "CC(=O)Nc1ccccc1-c1cnc2ccccc2n1",
    "TESTED_TARGET": "NCI-H522",
    "CLASS_NAME": "inactive"
  }
]

Kindly provide the recorded test outcome for the following molecule: C=C1CC[C@@]2(C)[C@@H]([C@@H]1C)[C@H]1CC[C@@H]3[C@@]4(C)CC[C@H](O)C(C)(C)[C@@H]4CC[C@@]3(C)[C@]1(C)C[C@@H]2O inactive

Please let me know the test result on file for O=C(CC1(O)C(=O)Nc2ccccc21)c1ccc(Cl)c(Cl)c1 (stereo not drawn) . inactive

Query: recorded result category for Nc1ccc(C(=O)NN2C(=O)[C@H](Cl)C2c2ccc(Cl)cc2)cc1 (stereo partly drawn) in this test inactive

Hello, I am checking results. What call was entered for COc1cc(C2c3cc4c(cc3OC3(O)COC(=O)C23)OCO4)cc(OC)c1OC (stereo not drawn) ? inactive

GET /call?item= Cc1nc(-c2nc(C)c(C(=O)NN(C)C)s2)sc1C(=O)NN(C)C returns the recorded outcome of this test. inactive

###

Tested on: HCC 2998
Experiment: NCI tumour cell line growth inhibition, 48 h
The source made the active and inactive calls. Rule as the data show it: active = GI50 up to about 1.1 µM and inactive = higher.
Below, each entry is listed alongside its reported GI50.

Known results for molecules:
[
  {
    "MOLECULE": "C=CCCCCCCCCC(=O)NS(=O)(=O)c1ccccc1",
    "GI50": "> 100 µM (inactive)"
  },
  {
    "MOLECULE": "COc1cc(/C=C2\\[C@H]3c4c(c(OC)c(C)c(OC)c4OC)C[C@@H](C(=O)N2Cc2ccccc2)N3C(=O)OCC(C)C)c(OC)c(C)c1OC",
    "GI50": "> 78.9 µM (inactive)"
  },
  {
    "MOLECULE": "CC(=O)OCCCCn1cc(Cn2ccc(=O)n(Cc3cn(CCCCOC(C)=O)nn3)c2=O)nn1",
    "GI50": "> 100 µM (inactive)"
  }
]

// assay HCC 2998, entry O=C1CCC2CCC1C2 (stereo not given) , GI50 value = > 100 µM (inactive)

# value of GI50, HCC 2998, item Cc1ccc(C(=O)NCc2ccccc2)cc1/N=N/N(C)C = > 100 µM (inactive)

###

System: RXF 393
Assay: NCI tumour cell line growth inhibition, 48 h
Activity calls are given as the source filed them. No stated cut-off is given here; in the data, active = GI50 up to about 1.1 µM and inactive = higher.
Return exactly one item of Y for active, N for inactive

// outcome(item) with item = COC(=O)c1cc(-c2ccc(-c3ccc(O)cc3)cc2)cc(-c2ccc(-c3ccc(O)cc3)cc2)c1 N

// param item: COc1ccc(/N=N/C(=O)NC(CC(C)C)C(=O)NC(Cc2ccccc2)C(=O)O)cc1 (stereo unspecified) ; yields the recorded call N

What outcome does the record of this test show for COCOc1cc(OC)ccc1C/C(=N/O)C(=O)OC ? N

Each compound tested received a call. Report the one for c1ccc(/N=C2\S/C(=N\C3CCCCC3)N(C3CCCCC3)\C2=N/c2ccccc2)cc1 . N

Query: recorded result category for CSCCCS/C1=C/CCCCCCCCCC1 in this test N

Per the assay record, what outcome was assigned to CC(C)C(NCc1c(O)ccc2c(-c3ccccc3)cc(=O)oc12)C(=O)O (stereo unspecified) ? N

Record request — test call for CO/C=C1\OC(=O)C=C1OC N

Outcome? O=C(NCCO)c1ccc(Cl)cc1 N

For CC1=C(c2cc(C(=O)Nc3cc(C)ccc3C)nc(N)n2)Sc2ccccc2N1 , which call appears in the assay record? N

GET /call?item= CSc1ncnc2c1ncn2CCC(=O)O returns the recorded outcome of this test. N

What did the test return for Cc1cc(-c2c(F)cc3c4nn([C@H]5CC[C@@H](N(C)C)CC5)c(=O)c-4cn(C4CC4)c3c2F)cc(C)n1 ? Y

###

Tested on: A549
Experiment: NCI tumour cell line growth inhibition, 48 h
Activity calls are given as the source filed them. Cut-off read from the data, not from the text of the source: active = GI50 up to about 1.1 µM and inactive = higher.
One label from this list, please: active, inactive

Examples with answers:
[
  {
    "COMPOUND": "COC1N(C2CC(O)C(CO)O2)C(=O)NC(=O)C1(F)Br (stereo not drawn)",
    "TESTED_TARGET": "A549",
    "CLASS_NAME": "active"
  },
  {
    "COMPOUND": "CSC1=C(C(=O)Nc2ccc(Cl)cc2)C(N)=NC1=O",
    "TESTED_TARGET": "A549",
    "CLASS_NAME": "inactive"
  },
  {
    "COMPOUND": "CCOC(=O)CNC1C(NC(C)=O)C(OC)OC2COC(c3ccccc3)OC21 (stereo not drawn)",
    "TESTED_TARGET": "A549",
    "CLASS_NAME": "inactive"
  },
  {
    "COMPOUND": "Cc1ccc(-c2c(C#N)c(-c3ccc(C)cc3)n(NS(=O)(=O)c3ccccc3)c(=O)c2C#N)cc1",
    "TESTED_TARGET": "A549",
    "CLASS_NAME": "inactive"
  }
]

Write down the call the test reported for this compound. Item: C=C(C)C12CC3CC/C(=N/O)C(C1)C3(N1CCOCC1)C/C2=N/O (stereo not drawn) inactive

Tell me the recorded outcome of this test for COc1ccc(/N=N/C(=O)NC(CC(C)C)C(=O)NC(Cc2ccccc2)C(=O)O)cc1 (stereo not drawn) . inactive

Hey, what did the test say about Cc1c2ncccc2cc2oc3ccccc3c(=O)c12 ? inactive

Called result for O=[N+]([O-])c1ccc2nc(Nc3ccccc3)c(Nc3ccccc3)nc2c1 active

Would you mind telling me which call this test gave O=C1c2cccc3cccc(c23)C(=O)N1CCCNCCCCNCCCNCCCN1C(=O)c2cccc3cccc(c23)C1=O ? active

Entry O=C1NCN(c2ccccc2)C12CCN(CCCSc1ccc(F)cc1)CC2 : call = ? inactive

Outcome? CC(C)=C1C(=O)C[C@]2(C)C/C=C(\C)CC/C=C(\C)CC[C@@H]12 inactive

Please state the recorded outcome for this compound: O=C(CC1(O)C(=O)Nc2c(Cl)cc(Cl)cc21)c1ccccc1 (stereo not drawn) inactive

Short answer needed: outcome of this test for CC#CC(=O)SCCNC(=O)CC ? inactive

// return assay outcome for O=C(CCC(=O)c1ccsc1)c1ccsc1 inactive

I'd appreciate the recorded outcome for Nc1c(O)c(C(=O)O)cc2ccccc12 from this test. inactive

Assay outcome for CCOC(=O)Nc1ccc(C)c(NC(=O)OCC)c1 : what was it? inactive

State the result this test recorded for CC1(C)CC(=O)c2c(oc3cc(O)c(O)cc23)C1 . inactive

Please indicate how the test categorized COc1cc(-c2cccs2)sc1-c1cccs1 . inactive

Assay result, entry C=CCNC1=C(C(=O)OCC)C(=O)CO1 — outcome? inactive

Each compound tested received a call. Report the one for CCCCCCCCCC/C=C/CC(=O)SCCNC(=O)CCNC(=O)[C@@H](O)C(C)(C)COP(=O)(O)OP(=O)(O)OCC1OC(n2cnc3c(N)ncnc32)C(O)C1OP(=O)(O)O (stereo partly drawn) . inactive
